Reported % Inhibition by item:
# experimental-system: UniProt P35968
# assay-notes: SelectScreen kinase activity profiling, KDR(VEGFR2)
# Assay type: biochemical
# Parameters: concentration or dose not given beside the values
# measurement-parameters: KDR(VEGFR2); second of two independent trials
# value in %; strip the unit string

Study these solved cases before continuing.
O=[As](O)(O)c1ccc(Cc2ccc([As](=O)(O)O)cc2)cc1 :: 78
Nc1cc[c]([Hg])cc1.Nc1nc2c(ncn2C2OC(CO)C(O)C2O)c(=[SH+])[nH]1 (stereo not shown) :: 104

## Input Requested field: % Inhibition. Item: "CC(=N[N-]C(=S)SCc1ccccc1)c1ccccn1.[Cl][Cu+]"
## Output 17

## Input What value of % Inhibition has been recorded for this entry: "Cc1cc(O)c(-c2cc(O)c(C)cc2O)cc1O"
## Output 52

## Input # get_value(readout='% Inhibition', item= "CC1=C(Br)C(=O)C(C)=C(Br)C1=O.Cc1c(O)c(Br)c(C)c(O)c1Br" )
## Output 99

## Input Which % Inhibition reading was recorded for the molecule COc1cc2cc(c1Cl)N(C)C(=O)CC(OC(=O)C(C)C)C1(C)OC1C(C)C1CC(O)(NC(=O)O1)C(OC)/C=C/C=C(\C)C2 (stereo not shown) ?
## Output 7

## Input Query: % Inhibition; subject: "CSC(=[SH+])[N-]N=Cc1cccc(C)n1.CSC(=[SH+])[N-]N=Cc1cccc(C)n1.[Cu]"
## Output 18

====

# System: angiogenesis genes in dermal microvascular endothelial cells
# assay-notes: Real time RT-PCR of angiogenesis gene expression during endothelial tube formation
# Type: cell-based
# measurement-parameters: 1 μM SM, 24 hours
# Method: For gene expression studies, three independent experiments were run for each SM tested. […] Fluorescence was measured in every cycle and a melting curve was run after the PCR by increasing temperature from 50 to 96° C. […] The genes that were monitored were selected based on their relevance to the angiogenesis process. […]
I'd appreciate it if you marked entries Yes when Log2 fold-change of gene expression: CCL2 is lower than 2 and No when it is not.

COc1cc2cc(c1Cl)N(C)C(=O)CC(OC(=O)C(C)C)C1(C)OC1C(C)C1CC(O)(NC(=O)O1)C(OC)/C=C/C=C(\C)C2 (stereo not drawn) [compound 292222] :: Yes
O=C1C(=Cc2ccccc2)C(NC2CCCCC2)c2ccccc21 (stereo not drawn) [compound 150117] :: Yes
COc1ccc(CC2C(=O)NC(C)C(=O)N(C)C3Cc4ccc(cc4)Oc4cc(ccc4O)CC(C(=O)NC(C)C(=O)NC(C)C(=O)N2C)N(C)C3=O)cc1 (stereo not drawn) [compound 259969] :: No
COC(=O)C1CC(=O)C(C(=O)OC)CC1=O (stereo not drawn) [Compound 122567] :: No
CCC(=O)OCN1C(=O)C=CC1=O [compound 19630] :: No

Consider the record given below.
## Input Please determine if CC1CCN(CC[S-])CC1.O.O.[Cl][Pt+] [compound 292596] is below 2 in terms of Log2 fold-change of gene expression: CCL2.
## Output No

====

# System: angiogenesis genes in dermal microvascular endothelial cells
# assay-notes: Real time RT-PCR of angiogenesis gene expression during endothelial tube formation
# Format: cell-based
# measurement-parameters: 1 μM SM, 24 hours
Below: a set of entries, each annotated with reported Log2 fold-change of gene expression: copa.
Respond using a number only.

## Input I'd like to know its Log2 fold-change of gene expression: copa. The molecule in question is COC(=O)C1CC(=O)C(C(=O)OC)CC1=O (stereo not drawn) [Compound 122567]
## Output 0.1

====

# Tested on: angiogenesis genes in dermal microvascular endothelial cells
# assay-notes: Real time RT-PCR of angiogenesis gene expression during endothelial tube formation
# Type: cell-based
# measurement-parameters: 1 μM SM, 24 hours
Where Log2 fold-change of gene expression: Erg equals or exceeds -4, the correct label is satisfied; where it does not, the label is not satisfied.

## Input Form field: Log2 fold-change of gene expression: Erg at least -4? Entry: COc1cc2cc(c1Cl)N(C)C(=O)CC(OC(=O)C(C)C)C1(C)OC1C(C)C1CC(O)(NC(=O)O1)C(OC)/C=C/C=C(\C)C2 (stereo not drawn)
## Output satisfied

## Input // inclusive: Log2 fold-change of gene expression: Erg at least -4? input: COC(=O)C1CC(=O)C(C(=O)OC)CC1=O (stereo not drawn)
## Output satisfied

## Input Please indicate if the recorded Log2 fold-change of gene expression: Erg for O=C1C(=Cc2ccccc2)C(NC2CCCCC2)c2ccccc21 (stereo not drawn) meets or exceeds -4.
## Output satisfied

## Input Answer whether Log2 fold-change of gene expression: Erg of "CCC(=O)OCN1C(=O)C=CC1=O" is greater than or equal to -4.
## Output satisfied

## Input For this compound, is measured Log2 fold-change of gene expression: Erg -4 or higher? "CC1CCN(CC[S-])CC1.O.O.[Cl][Pt+]"
## Output not satisfied

====

# experimental-system: FGFR1 (Homo sapiens)
# Sequence (P11362 398-822 limits assumed): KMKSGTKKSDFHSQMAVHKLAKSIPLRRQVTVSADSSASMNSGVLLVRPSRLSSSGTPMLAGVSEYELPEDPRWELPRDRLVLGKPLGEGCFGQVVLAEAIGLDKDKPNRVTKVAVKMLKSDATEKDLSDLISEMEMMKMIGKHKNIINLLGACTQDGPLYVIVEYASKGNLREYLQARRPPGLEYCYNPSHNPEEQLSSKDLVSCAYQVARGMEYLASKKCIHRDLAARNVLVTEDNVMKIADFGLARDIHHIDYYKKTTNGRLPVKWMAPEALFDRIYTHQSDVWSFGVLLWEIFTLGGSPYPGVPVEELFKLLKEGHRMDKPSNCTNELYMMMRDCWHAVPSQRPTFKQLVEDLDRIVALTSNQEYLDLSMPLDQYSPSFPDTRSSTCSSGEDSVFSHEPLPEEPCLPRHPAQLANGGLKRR
# assay-notes: SelectScreen kinase activity profiling, FGFR1
# Assay type: biochemical
# Parameters: concentration or dose not given beside the values
# measurement-parameters: first of two independent trials
Listed next: entries and their corresponding % Inhibition.
Reply numerically in %, unit not repeated.

Worked set:
COc1ccc(-c2csc3c2-n2cccc2C3=O)cc1 :: 4
O=C1C(=Cc2ccccc2)C(NC2CCCCC2)c2ccccc21 (centres unmarked) :: 2
CCC(=O)OCN1C(=O)C=CC1=O :: 2

## Input Find the measured % Inhibition: item "Cc1ccc(S(=O)(=O)OCC(=O)O)cc1" , target or system FGFR1 (Homo sapiens).
## Output 3

## Input Give % Inhibition (FGFR1 (Homo sapiens)) of the following molecule: "CSC(=[SH+])[N-]N=Cc1cccc(C)n1.CSC(=[SH+])[N-]N=Cc1cccc(C)n1.[Cu]"
## Output −5

====

# Test system: angiogenesis genes in dermal microvascular endothelial cells
# assay-notes: Real time RT-PCR of angiogenesis gene expression during endothelial tube formation
# Type: cell-based
# measurement-parameters: 1 μM SM, 24 hours
parameter-measured: Log2 fold-change of gene expression: S1PR1
Just the number.

// known answers, use as guide
O=C1C(=Cc2ccccc2)C(NC2CCCCC2)c2ccccc21 (stereo not drawn) [compound 150117] :: −1.9
COC(=O)C1CC(=O)C(C(=O)OC)CC1=O (stereo not drawn) [Compound 122567] :: −0.7
COc1ccc(CC2C(=O)NC(C)C(=O)N(C)C3Cc4ccc(cc4)Oc4cc(ccc4O)CC(C(=O)NC(C)C(=O)NC(C)C(=O)N2C)N(C)C3=O)cc1 (stereo not drawn) [compound 259969] :: −0.3
CC1CCN(CC[S-])CC1.O.O.[Cl][Pt+] [compound 292596] :: 0.2

## Input // query Log2 fold-change of gene expression: S1PR1 value for entry COc1cc2cc(c1Cl)N(C)C(=O)CC(OC(=O)C(C)C)C1(C)OC1C(C)C1CC(O)(NC(=O)O1)C(OC)/C=C/C=C(\C)C2 (stereo not drawn) [compound 292222]
## Output −0.3

## Input Which Log2 fold-change of gene expression: S1PR1 reading was recorded for the compound CCC(=O)OCN1C(=O)C=CC1=O [compound 19630] ?
## Output −2.6

====

# experimental-system: KDR(VEGFR2) (Homo sapiens, UniProt P35968)
# Sequence (P35968 20-1356): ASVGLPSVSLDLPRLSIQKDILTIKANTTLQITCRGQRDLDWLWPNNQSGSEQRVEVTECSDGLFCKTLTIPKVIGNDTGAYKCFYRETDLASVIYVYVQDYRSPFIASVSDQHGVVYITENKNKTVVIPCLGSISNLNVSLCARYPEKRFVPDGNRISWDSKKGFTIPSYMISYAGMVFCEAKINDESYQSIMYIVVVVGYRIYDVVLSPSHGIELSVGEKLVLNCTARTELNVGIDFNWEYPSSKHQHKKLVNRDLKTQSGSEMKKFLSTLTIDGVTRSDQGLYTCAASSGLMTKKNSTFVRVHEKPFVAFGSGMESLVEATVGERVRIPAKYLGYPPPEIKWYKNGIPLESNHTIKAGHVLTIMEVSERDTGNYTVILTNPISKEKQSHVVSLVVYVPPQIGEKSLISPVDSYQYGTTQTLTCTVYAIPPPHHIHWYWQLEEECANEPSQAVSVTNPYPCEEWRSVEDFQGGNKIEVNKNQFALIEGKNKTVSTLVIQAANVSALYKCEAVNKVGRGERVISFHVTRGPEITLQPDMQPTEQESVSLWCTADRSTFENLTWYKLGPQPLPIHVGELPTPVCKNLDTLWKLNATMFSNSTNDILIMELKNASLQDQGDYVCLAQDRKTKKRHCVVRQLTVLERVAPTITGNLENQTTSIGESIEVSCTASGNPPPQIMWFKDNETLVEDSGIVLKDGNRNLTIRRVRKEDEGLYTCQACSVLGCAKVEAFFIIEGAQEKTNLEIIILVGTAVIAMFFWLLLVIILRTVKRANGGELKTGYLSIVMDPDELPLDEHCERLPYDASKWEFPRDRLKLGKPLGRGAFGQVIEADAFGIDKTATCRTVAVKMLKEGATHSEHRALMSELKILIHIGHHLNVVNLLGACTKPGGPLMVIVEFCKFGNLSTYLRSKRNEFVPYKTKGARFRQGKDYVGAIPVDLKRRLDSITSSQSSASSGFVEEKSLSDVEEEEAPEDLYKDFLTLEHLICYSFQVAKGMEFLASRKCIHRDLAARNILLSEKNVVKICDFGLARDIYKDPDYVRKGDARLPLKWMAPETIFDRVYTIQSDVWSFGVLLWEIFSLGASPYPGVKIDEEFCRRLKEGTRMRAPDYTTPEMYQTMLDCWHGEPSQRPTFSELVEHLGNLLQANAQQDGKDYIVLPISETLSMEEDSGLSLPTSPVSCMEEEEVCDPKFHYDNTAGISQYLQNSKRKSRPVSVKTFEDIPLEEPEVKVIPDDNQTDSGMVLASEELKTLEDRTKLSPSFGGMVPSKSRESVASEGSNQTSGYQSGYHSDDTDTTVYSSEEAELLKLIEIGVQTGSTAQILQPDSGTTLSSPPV
# assay-notes: SelectScreen kinase activity profiling, KDR(VEGFR2)
# Type: biochemical
# Set-up: concentration or dose not given beside the values
# measurement-parameters: KDR(VEGFR2); second of two independent trials
parameter-measured: % Inhibition (%)
Respond numerically; units are % and should not be typed.

Past entries and their recorded results:
COC(=O)c1ccc(CCc2cc(O)ccc2O)cc1 [compound 681152] :: 8
C1=Cc2ccccc2C1.C=C(C)c1ccccc1.[N-]=[N+]=Nc1ccccc1 [compound 122351] :: 4
S=C1SCN(C2CCCCCCCCCCC2)CN1C1CCCCCCCCCCC1 [compound 209910] :: 10
COc1ccc(CC2C(=O)NC(C)C(=O)N(C)C3Cc4ccc(cc4)Oc4cc(ccc4O)CC(C(=O)NC(C)C(=O)NC(C)C(=O)N2C)N(C)C3=O)cc1 (centres unmarked) [compound 259969] :: 9
O=C(O)c1c(Br)c(Br)c(Br)c(Br)c1C1c2ccc(O)cc2Oc2cc(O)ccc21 [compound 119889] :: 104

## Input What does the record list as % Inhibition for CC(C)(C)c1c2c(c(C(C)(C)C)c3c1OCN(Cc1ccccc1)C3)OCN(Cc1ccccc1)C2 [compound 48458] ?
## Output 9

## Input Item CC(C)(O)/C=C/C(=O)C(C)(O)C1C(O)CC2(C)C3CC=C4C(C=C(O)C(=O)C4(C)C)C3(C)C(=O)CC12C (centres unmarked) [compound 521777] has what recorded % Inhibition?
## Output 8

## Input Which % Inhibition value belongs to O=C(c1no[n+]([O-])c1C(=O)c1csc2ccccc12)c1csc2ccccc12 [compound 18877] ?
## Output 4

## Input Look at this compound and give its reported % Inhibition. O=C1C(=Cc2ccccc2)C(NC2CCCCC2)c2ccccc21 (centres unmarked) [compound 150117]
## Output 24

## Input Would you kindly share the measured % Inhibition for CC(C)(C)c1cc(C#N)cc(Br)c1OP(=O)(Oc1c(Br)cc(C#N)cc1C(C)(C)C)c1ccccc1 [compound 203328] ?
## Output 7

## Input Sample NC(=O)SCC(=O)Nc1ccc2ncccc2c1 [compound 36738] — what was its % Inhibition?
## Output 17

## Input Which value of % Inhibition has been reported for COc1ccc(NCc2c(O)ccc3ccccc23)cc1 [compound 47924] in the records?
## Output 18

## Input I would be grateful if you could share the reported % Inhibition for O=C1c2ccccc2NC(c2cc(Cl)cc(Cl)c2O)N1CCc1ccccn1 (centres unmarked) [compound 328087] .
## Output 9

## Input For COc1ccc(CC2C(=O)NC(C)C(=O)N(C)C3C(=O)N(C)C(Cc4ccc(O)c(c4)Oc4ccc(cc4)C3O)C(=O)NC(C)C(=O)NC(C)C(=O)N2C)cc1 (centres unmarked) [compound 259968] , what is its reported % Inhibition?
## Output 9
